For each record, write down the corresponding log P.
format: physicochemical; conditions: method [a]: HPLC/LC-MS on reversed phase at pH 2.7, 0.1% formic acid in water / acetonitrile, linear gradient 10% to 95% acetonitrile

compound	reading
CCC1(C(=O)NC(C)C)CC(c2ccc3ncc(Br)cc3c2)=NO1 (centres unmarked) [compound 66]	3.13^[a]
CC1(C(=O)NCc2cccc(OC(F)(F)F)c2)CC(c2ccc3ncc(Br)cc3c2)=NO1 (centres unmarked) [compound 188]	3.89^[a]
CC1(C(=O)NCc2ccc3ccccc3n2)CC(c2ccc3ncc(Br)cc3c2)=NO1 (centres unmarked) [compound 165]	2.75^[a]
CCCn1cc(CNC(=O)C2(C(F)(F)F)CC(c3ccc4ncc(Br)cc4c3)=NO2)c(C)n1 (centres unmarked) [compound 107]	3.33^[a]
CCOCCCNC(=O)C1(CC)CC(c2ccc3ncc(Br)cc3c2)=NO1 (centres unmarked) [compound 68]	3.11^[a]
C#Cc1cnc2ccc(C3=NOC(C)(C(=O)NCc4c(C)nn(CC)c4C)C3)cc2c1 (centres unmarked) [compound 87]	2.08^[a]
CC1(C(=O)NCC2OCCc3ccccc32)CC(c2ccc3ncc(Br)cc3c2)=NO1 (centres unmarked) [compound 117]	3.33^[a]
C#Cc1cnc2ccc(C3=NOC(C)(C(=O)NCc4cnc(C)cn4)C3)cc2c1 (centres unmarked) [compound 167]	1.98^[a]
CCn1cc(CNC(=O)C2(CF)CC(c3ccc4ncc(Br)cc4c3)=NO2)c(C)n1 (centres unmarked) [compound 75]	2.31^[a]
C#Cc1cnc2ccc(C3=NOC(C)(C(=O)NC4CCCCNC4=O)C3)cc2c1 (centres unmarked) [compound 230]	1.98^[a]

Quick batch: log P for everything below.
1. C#Cc1cnc2ccc(C3=NOC(C)(C(=O)NCc4cnn(C)c4)C3)cc2c1 (centres unmarked) [compound 180]
2. C#Cc1cnc2ccc(C3=NOC(C)(C(=O)NCc4cn[nH]c4-c4cccs4)C3)cc2c1 (centres unmarked) [compound 192]
3. COc1cnc2ccc(C3=NOC(C)(C(=O)NC(C)C)C3)cc2c1 (centres unmarked) [compound 53]

Completion:
["1.86^[a]", "2.25^[a]", "2.08^[a]"]

Quick batch: log P for everything below.
1. CCC(C)NC(=O)C1(C)CC(c2cc3cc(Br)cnc3c(OC)c2OC)=NO1 (centres unmarked) [compound 28]
2. CC1(C(=O)NCc2cnn(-c3ccccc3)n2)CC(c2ccc3ncc(Br)cc3c2)=NO1 (centres unmarked) [compound 96]
3. CN1C(=O)CCC1CNC(=O)C1(C)CC(c2ccc3ncc(Br)cc3c2)=NO1 (centres unmarked) [compound 124]
4. CC1(C(=O)NCc2ccco2)CC(c2ccc3ncc(Br)cc3c2)=NO1 (centres unmarked) [compound 161]

Completion:
1. 3.21^[a]
2. 3.5^[a]
3. 1.85^[a]
4. 2.82^[a]

====

tested on: Septoria tritici; experiment: In vivo preventive test on Septoria tritici (leaf spot on wheat); conditions: 500 ppm; wheat plants sprayed 24 hours before contamination; grading 21 to 28 days after contamination vs control plants
For each record, write down the corresponding % of efficacy (protection).
Number first, unit second.

compound	system	% of efficacy (protection)
COCC(C)NC(=O)C1(C)CC(c2ccc3ncc(Br)cc3c2)=NO1 (racemic)	Septoria tritici	100%
CCOC1(C(=O)NCc2cn(CC)nc2C)CC(c2ccc3ncc(Br)cc3c2)=NO1 (centres unmarked)	Septoria tritici	100%
C#Cc1cnc2ccc(C3=NOC(C)(C(=O)NC(CC)c4cn(CC)nc4C)C3)cc2c1 (centres unmarked)	Septoria tritici	100%
C#Cc1cnc2c(C)cc(C3=NOC(C)(C(=O)NCc4cn(CCC)nc4C)C3)cc2c1 (centres unmarked)	Septoria tritici	100%
C#Cc1cnc2c(Cl)cc(C3=NOC(C)(C(=O)NCc4cn(CCC)nc4C)C3)cc2c1 (centres unmarked)	Septoria tritici	93%
COC1(C(=O)NC(C)C)CC(c2ccc3ncc(Br)cc3c2)=NO1 (single isomer, unassigned) [compound 284]	Septoria tritici	100%
C=CC1(C(=O)NCCCOCC)CC(c2ccc3ncc(Br)cc3c2)=NO1 (centres unmarked)	Septoria tritici	92%

Prompt: Lab note: need % of efficacy (protection) for C#Cc1cnc2ccc(C3=NOC(C)(C(=O)NC(C)C4CC4)C3)cc2c1 (centres unmarked) on Septoria tritici, anyone have it?
Completion: 100%

====

type: physicochemical; details: HPLC on reversed phase columns, method [a]: pH 2.7, 0.1% formic acid in water / acetonitrile, linear gradient 10% to 95% acetonitrile
For each record, write down the corresponding log P.

molecule	measurementName	reading
COC1(C(=O)NCc2cnc(C)cn2)CC(c2cc(Cl)c3ncc(Br)cc3c2)=NO1 (centres unmarked) [compound 575]	log P	2.62[a]
C#Cc1cnc2ccc(C3=NOC(C)(C(=O)NC(CN(C)c4ccccc4)C4CC4)C3)cc2c1 (centres unmarked) [compound 359]	log P	3.69[a]
C#Cc1cnc2ccc(C3=NOC(C)(C(=O)NC(c4cccc(Cl)c4)C(F)(F)F)C3)cc2c1 (centres unmarked) [compound 357]	log P	3.94[a]
C#Cc1cnc2ccc(C3=NOC(C)(C(=O)NCc4cn(C5CC5)nc4C)C3)cc2c1 (centres unmarked) [compound 668]	log P	2.26[a]

Quick batch: log P for everything below.
1. C#Cc1cnc2ccc(C3=NOC(C)(C(=O)NC(C)c4nccs4)C3)cc2c1 (centres unmarked) [compound 334]
2. CCn1cc(CNC(=O)C23CCCC2C(c2ccc4ncc(Br)cc4c2)=NO3)c(C)n1 (centres unmarked) [compound 261]
3. CCn1cc(CNC(=O)C2(C)CC(c3ccc4ncc(C#N)cc4c3)=NO2)c(C)n1 (centres unmarked) [compound 288]
4. CC(C)(C)NC(=O)C1(C)CC(c2ccc3ncc(Br)cc3c2)=NO1 (centres unmarked) [compound 319]

Completion:
2.28[a]
2.75^[a]
1.80[a]
3.39[a]

====

For each record, write down the corresponding log P.
format: physicochemical; details: method [a]: HPLC/LC-MS on reversed phase at pH 2.7, 0.1% formic acid in water / acetonitrile, linear gradient 10% to 95% acetonitrile

Consider the reported log P for these molecules:
molecule	measurementName	reading
C#Cc1cnc2ccc(C3=NOC(C)(C(=O)NCc4ccc(OC(F)(F)F)cc4)C3)cc2c1 (stereo not drawn)	log P	3.53^[a]
C#Cc1cnc2ccc(C3=NOC(C)(C(=O)NCc4ccnc(N5CCOCC5)c4)C3)cc2c1 (stereo not drawn)	log P	1.36^[a]
CSc1cnc2ccc(C3=NOC(C)(C(=O)NC(C)C)C3)cc2c1 (stereo not drawn)	log P	2.44^[a]
C#Cc1cnc2ccc(C3=NOC(C)(C(=O)NCc4cnn(-c5ccccc5)n4)C3)cc2c1 (stereo not drawn)	log P	3.11^[a]
CC(NC(=O)C1(C)CC(c2ccc3ncc(Br)cc3c2)=NO1)c1ccccn1 (stereo not drawn)	log P	2.14^[a]
CC1(C(=O)NCc2cccc(Cl)c2Cl)CC(c2ccc3ncc(Br)cc3c2)=NO1 (stereo not drawn)	log P	4.01^[a]

Quick batch: log P for everything below.
1. C#Cc1cnc2ccc(C3=NOC(C)(C(=O)NCc4ccc5c(c4)CCO5)C3)cc2c1 (stereo not drawn)
2. C#Cc1cnc2ccc(C3=NOC(C)(C(=O)NCc4noc(C)n4)C3)cc2c1 (stereo not drawn)
3. C#Cc1cc2cc(C3=NOC(C)(C(=O)NC(C)C)C3)ccc2nc1OC (stereo not drawn)
4. C#Cc1cnc2ccc(C3=NOC(C)(C(=O)NCc4cnn(CC)c4C)C3)cc2c1 (stereo not drawn)
5. C#Cc1cnc2ccc(C3=NOC(C)(C(=O)NCc4ccccc4)C3)cc2c1 (stereo not drawn)
6. CC1(C(=O)NCc2ccc3[nH]ccc3c2)CC(c2ccc3ncc(Br)cc3c2)=NO1 (stereo not drawn)

Completion:
1: 2.78^[a]; 2: 1.99^[a]; 3: 3.09^[a]; 4: 2.11^[a]; 5: 2.86^[a]; 6: 2.92^[a]

====

type: physicochemical; conditions: method [a]: HPLC/LC-MS on reversed phase at pH 2.7, 0.1% formic acid in water / acetonitrile, gradient 10% to 95% acetonitrile
For each record, write down the corresponding log P.

Consider the reported log P for these compounds:
compound	reading
C#Cc1cnc2ccc(C3=NOC(C)(C(=O)NCC(OC)OC)C3)cc2c1 (racemic)	2.13[a]
C#Cc1cnc2ccc(C3=NOC(OC)(C(=O)NCC4COC(C)(C)O4)C3)cc2c1 (stereo not drawn)	2.35[a]
CC1(C)OCC(CNC(=O)C2(C)CC(c3ccc4ncc(I)cc4c3)=NO2)O1 (stereo not drawn)	2.78[a]
CC1(C(N)=O)CC(c2ccc3ncc(Br)cc3c2)=NO1 (racemic)	1.82[a]
C#CC1(C(=O)NC(C)C)CC(c2ccc3ncc(Br)cc3c2)=NO1 (stereo not drawn)	2.92[a]

Quick batch: log P for everything below.
1. CC(C)NC(=O)C1(CC2CC2)CC(c2ccc3ncc(Br)cc3c2)=NO1 (stereo not drawn)
2. C#Cc1cnc2ccc(C3=NOC(OC)(C(=O)N(OC)C(C)CC)C3)cc2c1 (stereo not drawn)
3. C#Cc1cnc2ccc(C3=NOC(CC)(C(=O)NC4CC4)C3)cc2c1 (racemic)

Completion:
["3.60[a]", "3.31[a]", "2.44[a]"]

Quick batch: log P for everything below.
1. C/C(=N\O)C1(C(=O)NC(C)C)CC(c2ccc3ncc(Br)cc3c2)=NO1 (stereo not drawn)
2. CC(C)NC(=O)C12CC1C(c1ccc3ncc(Br)cc3c1)=NO2 (racemic)
3. CCCn1cc(CNC(=O)C2(CC)CC(c3ccc4ncc(Br)cc4c3)=NO2)c(C)n1 (stereo not drawn)
4. CCONC(=O)C1(C)CC(c2ccc3ncc(Br)cc3c2)=NO1 (racemic)
5. CCOCCCNC(=O)C1(OC)CC(c2ccc3ncc(I)cc3c2)=NO1 (racemic)
6. C#CCONC(=O)C1(C)CC(c2ccc3ncc(C#C)cc3c2)=NO1 (stereo not drawn)

Completion:
["2.58[a]", "2.82[a]", "2.91[a]", "2.17[a]", "2.80[a]", "1.95[a]"]

Quick batch: log P for everything below.
1. C#Cc1cnc2ccc(C3=NOC(C)(C(=O)NC4CCOCC4)C3)cc2c1 (stereo not drawn)
2. CC(ONC(=O)C1(C)CC(c2ccc3ncc(Br)cc3c2)=NO1)C1CC1 (racemic)
3. CCn1cc(CNC(=O)C2(C)CC(c3ccc4ncc(N)cc4c3)=NO2)c(C)n1 (racemic)
4. COC1(C(=O)NC2CC2)CC(c2ccc3ncc(I)cc3c2)=NO1 (racemic)
5. CCn1cc(CNC(=O)C2(C[Si](C)(C)C)CC(c3ccc4ncc(Br)cc4c3)=NO2)c(C)n1 (stereo not drawn)
6. C#Cc1cc2cc(C3=NOC(C)(C(=O)NCc4cn(CC)nc4C)C3)ccc2nc1C#N (stereo not drawn)
7. C#Cc1cnc2ccc(C3=NOC(C)(C(=O)NC(C)CC(=O)OCC)C3)cc2c1 (mixture of isomers)
8. CCn1cc(CNC(=O)C2(C)CC(c3ccc4nc(OC)c(I)cc4c3)=NO2)c(C)n1 (stereo not drawn)

Completion:
2.01[a]
2.73[a]
1.12[a]
2.48[a]
2.83[a]
2.39[a]
2.57[a]
3.11[a]

Quick batch: log P for everything below.
1. CC1(C(=O)NC(C)(C)c2ccon2)CC(c2ccc3ncc(Br)cc3c2)=NO1 (stereo not drawn)
2. CCn1cc(CNC(=O)C2(C)ON=C(c3ccc4ncc(Br)cc4c3)C2C)c(C)n1 (racemic)
3. COC1(C(=O)NC2CCC2)CC(c2ccc3ncc(Br)cc3c2)=NO1 (stereo not drawn)
4. C#Cc1cnc2ccc(C3=NOC(CC)(C(=O)NCc4cn(CC)nc4C)C3)cc2c1 (racemic)
5. CCC(COC)NC(=O)C1(C)CC(c2ccc3ncc(Br)cc3c2)=NO1 (racemic)
6. COC1(C(=O)NCC(O)CO)CC(c2ccc3ncc(Br)cc3c2)=NO1 (stereo not drawn)
7. CCCn1cc(CNC(=O)C2(CC3CC3)CC(c3ccc4ncc(Br)cc4c3)=NO2)c(C)n1 (stereo not drawn)
8. CCCOc1cnc2ccc(C3=NOC(C)(C(=O)NCc4cn(CC)nc4C)C3)cc2c1 (stereo not drawn)

Completion:
["2.86[a]", "2.55[a]", "2.84[a]", "2.37[a]", "2.88[a]", "1.59[a]", "3.33[a]", "2.46[a]"]

These entries and their values trace back to patent US9510598B2.
